Field: Activity. Provide a value for each of the compounds that follow.
test: Antiestrogenic activity against Estradiol (E2) induced cell proliferation; parameters: concentration or dose not given beside the values
Kindly provide the numeric value in % only, without the unit symbol.

Query: GET /values?readout=Activity&item= CCCCN(C)C(=O)CCCCCCCCCCCSC(Cc1ccc(OC)cc1)c1ccc(OC)cc1 (configuration not stated)
Response: 13

Query: Please look up its Activity: CCCCN(C)C(=O)CCSC(Cc1ccc(OCc2ccccc2)cc1)c1ccc(OC)cc1 (configuration not stated)
Response: 64

Query: Can you share its Activity? I mean this compound: CCCCN(C)C(=O)CCCCCCCSC(Cc1ccc(OC)cc1)c1ccc(OC)cc1 (configuration not stated)
Response: 36

Query: Bench note: what Activity did CCCCN(C)C(=O)CCCCCCCCCCC1Cc2cc(O)ccc2[C@H]2CC[C@]3(C)[C@@H](O)[C@H](Cl)C[C@H]3[C@H]12 (some centres not stated) show?
Response: 103

Query: Data request, read-out Activity, for CCCCN(C)C(=O)CCSC(Cc1ccc(O)cc1)c1ccc(OC)cc1 (configuration not stated)
Response: 66

Query: Activity for CCCCN(C)C(=O)CCCCCCCSC(Cc1ccc(OCc2ccccc2)cc1)c1ccc(OC)cc1 (configuration not stated) ?
Response: 56

Query: Activity for CCCCN(C)C(=O)CCCCCCCCCCSC(Cc1ccc(O)cc1)c1ccc(OC)cc1 (configuration not stated) ?
Response: 8
